tested on: PIP tumor and PC3 tumor; experiment: Biodistribution of 125I labeled compounds 17, 18, 26 and 27 in tumor bearing nude mice; type: in vivo; conditions: 1 h, ratio
attribute-measured: PIP/muscle

See these solved cases before continuing.
compound: O=C(O)CC[C@H](NC(=O)N[C@@H](CCCCNC(=O)[C@H](Cc1ccccc1)NC(=O)COc1ccc(C[C@H](NC(=O)[C@H](CCC(=O)O)NC(=O)c2ccc([125I])cc2)C(=O)O)cc1)C(=O)O)C(=O)O [[^125I]26]
PIP/muscle: 16.02

compound: O=C(O)CC[C@H](NC(=O)N[C@@H](CCCCNC(=O)[C@H](Cc1ccccc1)NC(=O)[C@H](CCC(=O)O)NC(=O)[C@H](CCC(=O)O)NC(=O)c1ccc([125I])cc1)C(=O)O)C(=O)O [[^125I]18]
PIP/muscle: 16.14

1: O=C(O)CC[C@H](NC(=O)N[C@@H](CCCCNC(=O)[C@H](Cc1ccccc1)NC(=O)COc1ccc(C[C@H](NC(=O)[C@H](CCC(=O)O)NC(=O)[C@H](CCC(=O)O)NC(=O)c2ccc([125I])cc2)C(=O)O)cc1)C(=O)O)C(=O)O [[^125I]27]
2: O=C(O)CC[C@H](NC(=O)N[C@@H](CCCCNC(=O)[C@H](Cc1ccccc1)NC(=O)[C@H](CCC(=O)O)NC(=O)c1ccc([125I])cc1)C(=O)O)C(=O)O [[^125I]17]
// task: argmin of PIP/muscle over [ 1 , 2 ] Label of pick, please. 1
